Target: T1, ARHGEF11, O15085
T1 sequence (O15085 42-136, limits assumed, looked up): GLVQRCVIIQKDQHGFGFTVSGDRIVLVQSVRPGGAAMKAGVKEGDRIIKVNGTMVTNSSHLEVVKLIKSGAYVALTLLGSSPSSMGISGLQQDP
Assay: holdup assay
Set-up: key: below the threshold = too weak to quantify, mostly under pKd 3.1 to 4
Settings: plain residues with an end cap or a label only (N-terminal biotin on a linker: ttds)
OBSERVABLE: pKd

[[record]]
binder = "ERKLSSESQV [LRP4, O75096]"
observable = "pKd"
recorded_result = "below the threshold"

[[record]]
binder = "VLRLQSETSV [VANGL1, Q8TAA9]"
observable = "pKd"
recorded_result = "below the threshold"

[[record]]
binder = "SRPQRTQTQV [HPV67-E6, A4U7F2]"
observable = "pKd"
recorded_result = 4.05

[[record]]
binder = "PKTPPTDTSV [KIR3DL3, Q8N743]"
observable = "pKd"
recorded_result = "below the threshold"

